meta.source: paper PMC12394810

test system: DU145 (human prostate cell line); assay: MTT cytotoxicity assay, DU145; assay type: cell-based; conditions: DU-145, 48 h, read-out: IC50 DU145
quantity measured: IC50 (µM)
Number in µM, nothing else.

Ask: Item under review: O=C/C=C/c1ccccc1 [Compound 1, (E)-3-phenylprop-2-enal, reference compound] . Reported IC50?
Result: 22.4

Ask: Item under review: `Cc1ccc(COc2ccccc2C(=O)/C=C/C=C/c2ccccc2)cc1` . Reported IC50?
Result: 21.3

Ask: Item under review: `O=C(/C=C/C=C/c1ccccc1)c1ccccc1OCc1ccccc1Br` . Reported IC50?
Result: 28.6

Ask: Item under review: `O=C(/C=C/C=C/c1ccccc1)c1ccccc1OCCBr` . Reported IC50?
Result: 8.72

Ask: Item under review: `O=C(/C=C/C=C/c1ccccc1)c1ccccc1OCc1ccc(Cl)c(Cl)c1` . Reported IC50?
Result: 17.9
